Measured kon, listed per entry.
target: T1, recombinant human ErbB3 monomeric protein (cleaved rhErbB3) (human, UniProt P21860 20-643, limits assumed)
T1 construct: Monomer made by protease cleavage of the Fc fusion; also called Monomeric ErbB3
test description: SPR Biacore 37 C; supernatant antibody captured on anti-human Fc, cleaved rhErbB3 injected
Write the answer as a number in M⁻¹ s⁻¹, unit excluded.

binder | recorded endpoint | endpoint value
Sh24C05-25 (antibody, human IgG1, kappa, V domains shown, Humanized, human IgG1/kappa) VH: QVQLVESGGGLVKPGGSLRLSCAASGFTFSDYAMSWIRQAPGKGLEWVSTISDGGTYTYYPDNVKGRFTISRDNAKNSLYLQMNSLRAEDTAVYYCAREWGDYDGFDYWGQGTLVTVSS VL: DIQMTQSPSSLSASVGDRVTITCRASQEISGYLSWFQQKPGKAPKSLIYAASTLDSGVPSRFSGSGSGTDFTLTISSLQPEDFATYYCLQYDSYPYTFGQGTKLEIKR | kon | 2.63e+06
Sh24C05-49 (antibody, human IgG1, kappa, V domains shown, Humanized, human IgG1/kappa) VH: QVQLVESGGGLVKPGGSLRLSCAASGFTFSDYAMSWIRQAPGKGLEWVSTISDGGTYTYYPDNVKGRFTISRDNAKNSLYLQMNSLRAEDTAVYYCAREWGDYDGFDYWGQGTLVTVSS VL: DIQMTQSPSSLSASVGDRVTITCRASQEISGYLSWYQQKPGKAPKLLIYAASTLDSGVPSRFSGSGSGTDFTLTISSLQPEDFATYYCLQYDSYPYTFGQGTKLEIKR | kon | 4.08e+06

Please give the measured kon for this binder: Sh24C05-45 (antibody, human IgG1, kappa, V domains shown, Humanized, human IgG1/kappa) VH: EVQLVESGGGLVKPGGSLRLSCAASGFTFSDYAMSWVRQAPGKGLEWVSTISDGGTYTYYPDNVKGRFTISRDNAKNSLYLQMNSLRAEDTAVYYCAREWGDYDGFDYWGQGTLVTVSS VL: DIQMTQSPSSLSASVGDRVTITCRASQEISGYLSWYQQKPGKAPKLLIYAASTLDSGVPSRFSGSGSGTDFTLTISSLQPEDFATYYCLQYDSYPYTFGQGTKLEIKR
8.57e+06
